All figures here come from ChEMBL document CHEMBL4831559.

IC50 listing for selected compounds.
biological target: Bcr/Abl fusion protein (Homo sapiens); experiment: Inhibition of BCR-ABL (unknown origin) expressed in mouse BaF3 cells assessed as reduction in cell proliferation incubated for 48 hrs by cell proliferation assay
Sequence (P00519 whole entry, the tested form may be a part): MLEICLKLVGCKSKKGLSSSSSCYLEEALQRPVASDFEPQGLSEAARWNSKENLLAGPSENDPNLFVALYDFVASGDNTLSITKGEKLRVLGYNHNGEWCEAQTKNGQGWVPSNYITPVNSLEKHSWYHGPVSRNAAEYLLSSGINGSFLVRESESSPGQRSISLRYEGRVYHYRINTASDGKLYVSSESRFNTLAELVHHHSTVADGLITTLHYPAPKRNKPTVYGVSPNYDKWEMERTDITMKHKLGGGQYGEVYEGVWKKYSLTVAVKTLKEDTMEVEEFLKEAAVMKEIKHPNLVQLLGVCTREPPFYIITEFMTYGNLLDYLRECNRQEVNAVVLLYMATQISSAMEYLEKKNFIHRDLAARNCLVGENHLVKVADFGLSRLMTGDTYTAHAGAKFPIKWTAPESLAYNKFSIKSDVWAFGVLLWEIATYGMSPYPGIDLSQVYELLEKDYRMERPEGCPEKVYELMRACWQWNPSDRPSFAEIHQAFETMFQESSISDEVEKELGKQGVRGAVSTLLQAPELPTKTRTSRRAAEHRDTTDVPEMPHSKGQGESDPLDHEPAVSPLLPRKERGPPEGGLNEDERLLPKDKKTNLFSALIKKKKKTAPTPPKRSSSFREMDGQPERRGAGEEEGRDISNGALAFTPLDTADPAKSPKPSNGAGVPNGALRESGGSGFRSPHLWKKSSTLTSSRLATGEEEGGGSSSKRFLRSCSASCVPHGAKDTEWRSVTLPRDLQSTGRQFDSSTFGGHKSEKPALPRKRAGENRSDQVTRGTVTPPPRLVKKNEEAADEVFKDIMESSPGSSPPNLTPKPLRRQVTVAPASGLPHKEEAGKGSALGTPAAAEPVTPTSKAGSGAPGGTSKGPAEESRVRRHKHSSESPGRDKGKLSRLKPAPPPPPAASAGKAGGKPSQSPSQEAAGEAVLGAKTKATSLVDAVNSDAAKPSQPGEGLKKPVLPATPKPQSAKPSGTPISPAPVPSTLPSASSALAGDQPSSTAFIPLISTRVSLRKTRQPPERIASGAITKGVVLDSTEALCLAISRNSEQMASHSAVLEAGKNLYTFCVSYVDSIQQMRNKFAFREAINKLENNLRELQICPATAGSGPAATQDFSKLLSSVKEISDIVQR
Sequence (P11274 whole entry, further chain, the tested form may be a part): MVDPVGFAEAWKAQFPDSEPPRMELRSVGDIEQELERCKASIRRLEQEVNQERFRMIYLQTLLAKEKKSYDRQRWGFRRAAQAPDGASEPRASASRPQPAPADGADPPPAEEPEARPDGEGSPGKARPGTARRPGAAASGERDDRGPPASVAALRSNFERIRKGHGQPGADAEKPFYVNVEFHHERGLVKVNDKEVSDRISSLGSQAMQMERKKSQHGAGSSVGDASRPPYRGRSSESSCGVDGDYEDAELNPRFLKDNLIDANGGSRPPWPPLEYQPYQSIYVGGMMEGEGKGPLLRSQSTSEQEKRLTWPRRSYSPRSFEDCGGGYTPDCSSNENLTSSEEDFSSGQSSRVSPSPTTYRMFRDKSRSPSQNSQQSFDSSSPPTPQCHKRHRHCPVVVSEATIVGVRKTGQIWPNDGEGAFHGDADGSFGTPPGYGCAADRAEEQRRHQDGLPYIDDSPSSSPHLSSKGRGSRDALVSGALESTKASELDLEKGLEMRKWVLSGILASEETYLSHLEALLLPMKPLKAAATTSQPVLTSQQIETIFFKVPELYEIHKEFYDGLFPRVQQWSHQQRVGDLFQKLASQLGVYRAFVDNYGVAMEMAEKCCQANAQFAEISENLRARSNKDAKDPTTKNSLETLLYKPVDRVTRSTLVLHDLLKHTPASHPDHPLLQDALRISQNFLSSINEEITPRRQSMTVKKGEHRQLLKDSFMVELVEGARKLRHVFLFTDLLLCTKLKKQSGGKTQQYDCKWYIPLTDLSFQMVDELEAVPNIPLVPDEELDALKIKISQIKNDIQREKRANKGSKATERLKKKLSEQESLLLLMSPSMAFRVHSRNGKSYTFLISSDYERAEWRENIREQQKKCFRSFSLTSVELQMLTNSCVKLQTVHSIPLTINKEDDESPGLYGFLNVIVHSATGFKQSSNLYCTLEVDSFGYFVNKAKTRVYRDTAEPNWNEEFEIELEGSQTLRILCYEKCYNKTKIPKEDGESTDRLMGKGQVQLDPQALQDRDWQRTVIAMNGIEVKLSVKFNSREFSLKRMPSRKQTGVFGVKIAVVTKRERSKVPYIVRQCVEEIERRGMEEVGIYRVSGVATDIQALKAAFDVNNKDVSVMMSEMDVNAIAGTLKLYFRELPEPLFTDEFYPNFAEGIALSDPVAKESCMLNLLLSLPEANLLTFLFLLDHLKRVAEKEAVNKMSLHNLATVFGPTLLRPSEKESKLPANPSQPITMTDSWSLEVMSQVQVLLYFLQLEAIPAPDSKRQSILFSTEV
Observation Type: IC50 (nM)

smiles_structure=Nc1ncnc2c1c(-c1cccc(O)c1)cn2[C@H]1C[C@@H](CO)C1 unit_symbol=nM recorded_result=43
smiles_structure=CC(=O)N1CCN([C@H]2C[C@@H](n3cc(-c4cc(O)ccc4F)c4c(N)ncnc43)C2)CC1 unit_symbol=nM recorded_result=4200

---

test: Cmax in nude mouse xenografted with KIF5B-RET BaF3 cells xenografted at 60 mg/kg, po qd for 14 days; assay type: ADME, organism-based; set-up: route oral, time 14 day, dose 60 mg/kg; conditions: in vivo
Observation Type: Cmax (µM)

smiles_structure=CC(=O)N1CCN([C@H]2C[C@@H](n3cc(-c4ccc(Cl)c(N)c4)c4c(N)ncnc43)C2)CC1 recorded_result=19
